- Study system: Calmodulin-1 (Homo sapiens) (UniProt P0DP23)
- Test description: small molecules binding calmodulin-1 with EGTA – biochemical, small-molecule microarray, Cy5-labelled CALM1, profiling panel (AID 1111);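 further: labelled calmodulin applied in Tris saline Tween buffer holding calcium plus EGTA and DTT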
- Measurement parameters: Cy5-CALM1 binding fluorescence, higher = more signal
Returns one of YES or NO; YES when composite z-score is >= 0.07.

>  <Compound>
COc1ccc(NC(=O)O[C@H]2[C@H](OC(=O)c3cc4ccccc4[nH]3)[C@@H](OC(=O)c3cc4ccccc4[nH]3)[C@@H](OC)O[C@@H]2CO)cc1

>  <Study system>
Calmodulin-1 (Homo sapiens) (UniProt P0DP23)

>  <Class label>
YES

$$$$
>  <Compound>
NC(=O)N1C(=O)C2C(C1=O)C1C=C(CCCO)C2C(C2CC2)N1Cc1cc2c(cc1Br)OCO2 (configuration not stated)

>  <Study system>
Calmodulin-1 (Homo sapiens) (UniProt P0DP23)

>  <Class label>
NO

$$$$
>  <Compound>
COCCOC(=O)N1C(=O)[C@@]2(c3cc(C#CCCO)ccc31)[C@H](c1ccc(O)cc1)N1[C@H](c3ccccc3)[C@H](c3ccccc3)OC(=O)[C@H]1[C@@H]2C(=O)N1CCN(c2ncccn2)CC1

>  <Study system>
Calmodulin-1 (Homo sapiens) (UniProt P0DP23)

>  <Class label>
YES

$$$$
>  <Compound>
C#CCOc1ccc(C[C@@H](C(=O)OC)N(CC#C)[C@@H](/C=C/C2CC2)[C@H](O)Cc2ccccc2)cc1

>  <Study system>
Calmodulin-1 (Homo sapiens) (UniProt P0DP23)

>  <Class label>
NO

$$$$
>  <Compound>
C=CC1c2cc(O)c(OC)cc2CCN1Cc1cccc(OC(F)(F)F)c1 (configuration not stated)

>  <Study system>
Calmodulin-1 (Homo sapiens) (UniProt P0DP23)

>  <Class label>
YES

$$$$
>  <Compound>
COC(=O)c1c2oc(c1C(=O)OC)C(=O)N[C@@H](C(C)C)Cn1cc(nn1)C1(CCCCC1)NC(=O)N[C@H](CO)CC2

>  <Study system>
Calmodulin-1 (Homo sapiens) (UniProt P0DP23)

>  <Class label>
NO

$$$$
>  <Compound>
[N-]=[N+]=Nc1ccccc1C[C@]1(C(=O)N2CCCCC2)COC(c2ccc(OCCCO)cc2)=N1

>  <Study system>
Calmodulin-1 (Homo sapiens) (UniProt P0DP23)

>  <Class label>
YES

$$$$

* * *

- Study system: Neurogenic locus notch homolog protein 2 (Homo sapiens) (UniProt Q04721)
- Sequence (Q04721 whole entry, looked up): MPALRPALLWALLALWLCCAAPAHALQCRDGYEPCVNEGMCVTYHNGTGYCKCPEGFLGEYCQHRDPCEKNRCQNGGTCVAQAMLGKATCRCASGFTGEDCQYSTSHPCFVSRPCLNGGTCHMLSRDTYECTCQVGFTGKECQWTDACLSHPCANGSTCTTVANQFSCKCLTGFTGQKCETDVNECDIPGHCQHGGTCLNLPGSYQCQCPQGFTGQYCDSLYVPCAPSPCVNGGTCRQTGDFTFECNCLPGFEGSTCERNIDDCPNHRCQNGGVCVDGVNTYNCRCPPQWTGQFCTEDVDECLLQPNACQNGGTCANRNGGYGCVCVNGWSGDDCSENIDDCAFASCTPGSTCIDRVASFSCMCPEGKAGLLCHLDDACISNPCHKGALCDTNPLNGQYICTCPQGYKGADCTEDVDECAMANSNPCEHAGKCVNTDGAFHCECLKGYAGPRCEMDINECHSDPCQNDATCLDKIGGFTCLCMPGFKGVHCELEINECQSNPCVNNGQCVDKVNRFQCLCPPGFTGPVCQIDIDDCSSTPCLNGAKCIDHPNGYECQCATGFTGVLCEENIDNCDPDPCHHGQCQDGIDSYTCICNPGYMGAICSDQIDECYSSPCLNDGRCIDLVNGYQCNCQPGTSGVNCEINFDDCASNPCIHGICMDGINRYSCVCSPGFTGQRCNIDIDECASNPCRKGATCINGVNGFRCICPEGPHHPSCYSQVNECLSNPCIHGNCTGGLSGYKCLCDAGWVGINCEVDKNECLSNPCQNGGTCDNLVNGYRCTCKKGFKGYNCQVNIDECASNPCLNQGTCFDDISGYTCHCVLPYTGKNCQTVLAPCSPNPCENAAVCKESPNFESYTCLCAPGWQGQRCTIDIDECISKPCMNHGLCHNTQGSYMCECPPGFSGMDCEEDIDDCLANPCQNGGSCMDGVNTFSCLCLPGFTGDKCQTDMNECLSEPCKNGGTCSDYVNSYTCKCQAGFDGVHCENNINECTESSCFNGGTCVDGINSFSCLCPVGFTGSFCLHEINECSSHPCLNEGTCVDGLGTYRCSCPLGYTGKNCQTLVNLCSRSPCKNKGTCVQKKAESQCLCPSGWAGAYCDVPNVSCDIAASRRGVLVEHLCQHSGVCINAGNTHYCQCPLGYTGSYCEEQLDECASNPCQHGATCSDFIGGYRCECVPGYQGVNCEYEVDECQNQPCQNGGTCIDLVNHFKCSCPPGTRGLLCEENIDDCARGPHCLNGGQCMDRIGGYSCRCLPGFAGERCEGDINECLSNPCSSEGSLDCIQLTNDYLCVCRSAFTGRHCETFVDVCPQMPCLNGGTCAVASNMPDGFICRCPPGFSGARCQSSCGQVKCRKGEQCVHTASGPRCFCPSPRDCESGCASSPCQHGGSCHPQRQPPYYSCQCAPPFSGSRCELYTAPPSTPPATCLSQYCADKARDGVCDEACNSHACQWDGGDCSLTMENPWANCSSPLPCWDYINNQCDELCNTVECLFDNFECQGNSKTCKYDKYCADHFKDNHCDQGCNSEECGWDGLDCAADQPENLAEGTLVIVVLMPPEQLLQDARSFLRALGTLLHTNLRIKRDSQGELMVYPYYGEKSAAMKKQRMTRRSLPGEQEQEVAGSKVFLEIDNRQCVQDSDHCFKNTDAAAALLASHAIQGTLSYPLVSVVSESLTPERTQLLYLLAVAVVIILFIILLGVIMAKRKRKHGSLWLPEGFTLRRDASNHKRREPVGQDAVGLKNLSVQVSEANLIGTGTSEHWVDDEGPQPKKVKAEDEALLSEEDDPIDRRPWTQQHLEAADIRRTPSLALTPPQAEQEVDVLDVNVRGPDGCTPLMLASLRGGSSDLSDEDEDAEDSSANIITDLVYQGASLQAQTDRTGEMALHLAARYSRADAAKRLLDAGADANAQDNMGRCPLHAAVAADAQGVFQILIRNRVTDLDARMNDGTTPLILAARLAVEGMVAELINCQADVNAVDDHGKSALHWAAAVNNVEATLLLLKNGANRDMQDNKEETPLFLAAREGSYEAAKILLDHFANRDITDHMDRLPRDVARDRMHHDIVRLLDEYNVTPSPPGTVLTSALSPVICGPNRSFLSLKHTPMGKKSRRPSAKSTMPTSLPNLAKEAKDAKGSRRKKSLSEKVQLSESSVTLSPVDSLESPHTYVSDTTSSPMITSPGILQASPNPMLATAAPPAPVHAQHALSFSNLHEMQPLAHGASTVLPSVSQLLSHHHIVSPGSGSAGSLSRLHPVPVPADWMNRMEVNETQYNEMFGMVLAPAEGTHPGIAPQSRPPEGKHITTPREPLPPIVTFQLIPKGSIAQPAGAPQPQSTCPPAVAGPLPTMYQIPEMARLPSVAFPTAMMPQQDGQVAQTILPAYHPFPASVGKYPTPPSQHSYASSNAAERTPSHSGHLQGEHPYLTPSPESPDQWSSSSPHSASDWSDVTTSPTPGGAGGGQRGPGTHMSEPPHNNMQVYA
- Test description: small molecules binding Notch2 protein – biochemical, small-molecule microarray, 635 nm fluorescence, stem cell growth factors, primary screen (AID 1073)
- Measurement parameters: higher = more signal
Below, each entry is listed alongside its reported composite z-score.

>  <Compound>
O[C@@H](Cc1ccccc1)[C@@H](/C=C/C1CC1)NCc1cccc(Cl)c1

>  <composite z-score>
-1.43

$$$$
>  <Compound>
O=C1C2C=CC(C(O)c3cc(C(F)(F)F)cc(C(F)(F)F)c3)N(Nc3ccccc3)C2C(=O)N1c1ccccc1 (centres undefined)

>  <composite z-score>
0.649

$$$$
>  <Compound>
C=CCC(OC(C)=O)[C@@H]1[C@@H](N(Cc2ccc(-c3ccccc3)cc2)C(=O)Cc2ccc(F)cc2)c2cc(OCCCO)ccc2N1C(=O)c1ccc2ccccc2c1 (some centres undefined)

>  <composite z-score>
0.166

$$$$
>  <Compound>
O=C1C2C=CC(C(O)C=Cc3ccc([N+](=O)[O-])cc3)N(Nc3ccccc3F)C2C(=O)N1c1ccccc1 (centres undefined)

>  <composite z-score>
1.51

$$$$

All values here come from PubChem BioAssay.
